# System Tested: T1, Human MuSK (R&D Systems, cat. 10189-MK, histidine tag) (human, UniProt O15146 24-495)
# T1 construct: Bought protein; also called human monomeric MuSK-6xhis; not shown: histidine tag (6xhis)
# T1 sequence: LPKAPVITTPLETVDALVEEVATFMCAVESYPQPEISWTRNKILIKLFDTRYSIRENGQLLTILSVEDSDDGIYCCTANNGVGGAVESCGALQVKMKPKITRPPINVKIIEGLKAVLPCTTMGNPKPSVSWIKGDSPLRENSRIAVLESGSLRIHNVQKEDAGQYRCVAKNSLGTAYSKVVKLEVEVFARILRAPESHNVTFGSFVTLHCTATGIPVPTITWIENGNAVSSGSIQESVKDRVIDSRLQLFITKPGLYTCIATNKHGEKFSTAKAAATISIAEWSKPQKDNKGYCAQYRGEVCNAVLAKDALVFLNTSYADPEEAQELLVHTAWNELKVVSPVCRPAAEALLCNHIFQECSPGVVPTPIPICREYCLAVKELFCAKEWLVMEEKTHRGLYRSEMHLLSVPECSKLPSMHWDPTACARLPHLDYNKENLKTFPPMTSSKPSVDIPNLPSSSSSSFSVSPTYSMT
# Method Summary: SPR (Biacore), MuSK-coated chip presaturated with 500 nM 4D3 (competitor)
Value Type: normalized extra amplitude (%)

INSERT INTO assay_data (binder, quantitative_readout) VALUES
  ('3D10a (antibody, human IgG1, kappa, L234A L235A, V domains shown) VH: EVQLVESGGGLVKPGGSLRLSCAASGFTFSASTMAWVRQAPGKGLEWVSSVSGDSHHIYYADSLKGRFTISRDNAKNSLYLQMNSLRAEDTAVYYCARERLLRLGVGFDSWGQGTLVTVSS VL: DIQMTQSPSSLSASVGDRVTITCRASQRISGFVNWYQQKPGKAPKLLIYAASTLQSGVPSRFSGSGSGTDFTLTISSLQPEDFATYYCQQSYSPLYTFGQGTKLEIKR', 1.9);
